Listing of entries alongside the reported Th-T fluorescence, mean of three wells.
system_under_test: Aβ42 (Homo sapiens)
Sequence (P05067 672-713): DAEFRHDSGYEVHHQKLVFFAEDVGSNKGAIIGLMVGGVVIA
protocol_text: Th-T (thioflavin-T) assay of Aβ42 aggregation
Format: biochemical
particulars: compound at 10; reading M41 of time course
Keep it simple and answer with nothing but the number.

Some solved cases for reference:
molecule: C=C1CCC2C(C)(CCC=C(C)C)C(O)CCC2(C)C1Cc1c(OC)oc(C)c(C(=O)OC)c1=O (centres unmarked)
system_under_test: Aβ42 (Homo sapiens)
Th-T fluorescence, mean of three wells: 2.4889

molecule: C=C1CCC2C(C)(CCC=C(C)C)C(O)CCC2(C)C1Cc1c(OC)oc(CO)c(C)c1=O (centres unmarked)
system_under_test: Aβ42 (Homo sapiens)
Th-T fluorescence, mean of three wells: 3.264

molecule: C=C1CC[C@@H]2[C@](C)(CC[C@H]3O[C@H](C=C(C)C)C[C@@]23C)[C@@H]1Cc1c(OC)oc(CO)c(C)c1=O
system_under_test: Aβ42 (Homo sapiens)
Th-T fluorescence, mean of three wells: 3.473

molecule: C=C1CCC2C(C)(CCC=C(C)C)C(O)CCC2(C)C1Cc1c(OC)oc(CO)c(C(=O)OC)c1=O (centres unmarked)
system_under_test: Aβ42 (Homo sapiens)
Th-T fluorescence, mean of three wells: 1.211

Problem: What value of Th-T fluorescence, mean of three wells has been reported for the following molecule? `C=C1CC[C@@H]2[C@](C)(CC[C@H]3O[C@H](C=C(C)C)C[C@@]23C)[C@@H]1Cc1c(OC)oc(CO)c(C(=O)OC)c1=O`
Result: 0.2566
